Tested on: NCI-H322M lung
METHOD_SUMMARY: NCI-60 one-dose screen, 48 h (100 = growth as untreated, 0 = no growth, -100 = all killed)
MEASUREMENT_CONTEXT: 10 µM unless noted
Compounds without any hit were thinned out: in the full panel of roughly 83,000, 20% have a hit. Calls of active or inactive are those of the source. How the source made its calls: active means growth percent below 10; inactive means the rest.
TEST_READOUT: growth

Form field growth, entry `FCOC(C(F)(F)F)C(F)(F)F` : 97.5% (inactive)

Form field growth, entry COc1cc(/C=N/NC(=O)c2cnn3c2NC(c2ccccc2)C3)ccc1OC1CCCC1 (stereo unspecified) : 32.9% (inactive)

Form field growth, entry `COC(=O)c1c2c(c(C)[n+]([O-])c1C)C(=O)C=C(NCc1cccc(OC)c1)C2=O` : -19.6% (active)

Form field growth, entry `Cc1cccc2c(=O)c3c(sc12)c(NCCNCCO)nc1ccccc13` : 37.7% (inactive)

Form field growth, entry `Cc1cc(=O)oc2c1ccc1oc(C(=O)c3ccccc3)c(C)c12` : 112% (inactive)

Form field growth, entry Cc1c(C)n(CC(O)CNC2CCCCC2C)c2ccccc12 (stereo unspecified) : 31.7% (inactive)

---

Tested on: HT29 colon
METHOD_SUMMARY: NCI-60 one-dose screen, 48 h
MEASUREMENT_CONTEXT: 10 µM unless noted
About 83,000 compounds went through this panel and 20% of them were active in at least one assay; those are over-represented in the sample as a whole. Calls of active or inactive are those of the source. How the source made its calls: active means growth percent below 10; inactive means the rest.
Log the outcome using a class from active, inactive

Task: Test call, this compound: `CCOC(=O)c1c(Cl)c2c(n1Cc1cc(OC)cc(OC)c1)-c1oncc1CCC2`
Output: active

Task: Test call, this compound: COc1cc(C2CC(=O)Nc3c2ccc2ccccc32)cc(Br)c1OC (configuration not stated)
Output: active

Task: Test call, this compound: `COc1ccc(/C=N\N2CCOCC2)cc1OC1CCCC1`
Output: inactive

Task: Test call, this compound: `COC(=O)CCC(=O)c1ccccc1`
Output: inactive

Task: Test call, this compound: `CCN1CCN(C(=S)SCC(=O)Nc2nc3ccc(OC)cc3s2)CC1`
Output: inactive

Task: Test call, this compound: `Cc1nn(CC(=O)O)c2c1C(=O)CC(C)(C)C2`
Output: inactive

Task: Test call, this compound: COc1ccc(/C=N/NC(=O)c2cnn3c2NC(c2ccccc2)C3)cc1OC1CCCC1 (configuration not stated)
Output: inactive

Task: Test call, this compound: `CC1(C)N=C(N)N=C(N)N1c1cccc(OCCOc2cccc([N+](=O)[O-])c2)c1`
Output: inactive

Task: Test call, this compound: `COc1cc(CNCCN2C(=O)c3ccc4c5c(ccc(c35)C2=O)C(=O)N(CCNCc2cc(OC)c(OC)c(OC)c2)C4=O)cc(OC)c1OC`
Output: active

Task: Test call, this compound: `Cc1c(C(=O)Nc2nc(-c3ccccc3)cs2)nnn1-c1ccccc1Br`
Output: inactive

Task: Test call, this compound: `CC(C)(C)CC(C)(C)N(CSc1ccc(Cl)cc1)CSc1ccc(Cl)cc1`
Output: inactive

Task: Test call, this compound: CCCCC(O)Cn1ncc(C(=O)OCC)c1NC(=O)NCc1ccccc1C(F)(F)F (configuration not stated)
Output: inactive

Task: Test call, this compound: `Cc1nc(NC(=O)COc2cccc(/C=C3\COc4ccccc4C3=O)c2)sc1C`
Output: active

Task: Test call, this compound: `COc1ccc(-c2csc3c2-n2cccc2C3=O)cc1O`
Output: inactive

Task: Test call, this compound: `O/N=C/c1cccs1`
Output: inactive

Task: Test call, this compound: `C[C@@H](Oc1cc(-c2cnn(C3CC4(CCNCC4)C3)c2)cnc1N)c1c(F)ccc(Cl)c1Cl`
Output: active

Task: Test call, this compound: `COC(=O)c1c2c(c(C)[n+]([O-])c1C)C(=O)C=C(NCc1ccc(Cl)cc1)C2=O`
Output: active

Task: Test call, this compound: `Cc1cc(NS(=O)(=O)c2ccc(NC(=O)COc3ccc(-c4cc5ccccc5[nH]4)cc3)cc2)no1`
Output: inactive

Task: Test call, this compound: CCOC(=O)c1cnn(CC(O)c2ccc(F)cc2)c1NC(=O)Nc1ccccc1F (configuration not stated)
Output: inactive

Task: Test call, this compound: `COc1ccc(/C=C(\C#N)c2cc3ccccc3n2C)cc1`
Output: active

Task: Test call, this compound: `O=C1/C(=C/c2ccc([N+](=O)[O-])cc2)Oc2ccc(O)cc21`
Output: inactive

Task: Test call, this compound: `FC(F)(F)c1ccc2c(c1)n1cnnc1c1nncn21`
Output: inactive

---

Test system: 786-0 renal
METHOD_SUMMARY: NCI-60 one-dose screen, 48 h (100 = growth as untreated, 0 = no growth, -100 = all killed)
MEASUREMENT_CONTEXT: 10 µM unless noted
This is part of a sample that, as a whole, favours compounds with a hit. Of some 83,000 tested, about 20% had one in any assay.
TEST_READOUT: growth (%)
Your answer should be a plain number; it is taken to be in %.

Form field growth, entry `O=C(CCCCCCC(=O)Nc1ccc2c(c1)/C(=C/c1ccc[nH]1)C(=O)N2)NO` : 26.2

Form field growth, entry `FCOC(C(F)(F)F)C(F)(F)F` : 97.7

Form field growth, entry `COc1ccccc1/C=C/C(=O)/C=C/c1ccccc1O` : -44

Form field growth, entry `ONc1nc(NO)c2[nH]cnc2n1` : 86.9

Form field growth, entry `CC1(C)N=C(N)N=C(N)N1c1cccc(OCCOc2cccc([N+](=O)[O-])c2)c1` : 81.7

Form field growth, entry `Oc1ccccc1/C=N/Nc1nc2ccccc2s1` : 73.4

---

System: MDA-MB-231 breast
METHOD_SUMMARY: NCI-60 one-dose screen, 48 h (100 = growth as untreated, 0 = no growth, -100 = all killed)
MEASUREMENT_CONTEXT: 10 µM unless noted
About 83,000 compounds went through this panel and 20% of them were active in at least one assay; those are over-represented in the sample as a whole.
Mark met only for growth values smaller than 80%; exact matches and larger values are not met.

Task: Dear reviewer, please state whether `O=C(Nc1ccc(Cl)c(Cl)c1)OCn1ncc2ccc([N+](=O)[O-])cc21` has growth strictly beneath 80%.
Output: met

Task: Dear reviewer, please state whether `O=[N+]([O-])c1ccc(C=C2C(Cl)=C(Cl)C(Cl)=C2Cl)cc1` has growth strictly beneath 80%.
Output: met

Task: Dear reviewer, please state whether COc1cccc(C2C3=C(COC3=O)N(CCO)c3cc4c(cc32)CCC4)c1 (stereo not given) has growth strictly beneath 80%.
Output: met

Task: Dear reviewer, please state whether COC1(OC)C2(Cl)C=C(c3ccccc3)C1(Cl)C(Cl)=C2Cl (stereo not given) has growth strictly beneath 80%.
Output: not met

Task: Dear reviewer, please state whether `COc1ccc(C(=O)C2=CC(=O)C(=O)C2)cc1OC` has growth strictly beneath 80%.
Output: not met

Task: Dear reviewer, please state whether `Fc1c[c-]c(-c2ccccn2)c(F)c1.Fc1c[c-]c(-c2ccccn2)c(F)c1.[Cl][Pt+].[Cl][Pt+].c1ccc([PH+](C[PH+](c2ccccc2)c2ccccc2)c2ccccc2)cc1` has growth strictly beneath 80%.
Output: met

Task: Dear reviewer, please state whether O=C1CC2c3cc(-c4cc5ccccc5o4)ccc3CCN2C(=O)N1c1ccccc1 (stereo not given) has growth strictly beneath 80%.
Output: not met

Task: Dear reviewer, please state whether `Brc1ccccc1Nc1ccc2nnc(-c3ccncc3)n2n1` has growth strictly beneath 80%.
Output: not met

Task: Dear reviewer, please state whether COc1ccc(/C=N/NC(=O)c2cnn3c2NC(c2ccccc2)C3)cc1OC1CCCC1 (stereo not given) has growth strictly beneath 80%.
Output: met

Task: Dear reviewer, please state whether `Cc1nc2ccc(Cl)cc2n1C` has growth strictly beneath 80%.
Output: not met

---

Tested on: SK-MEL-5 melanoma
METHOD_SUMMARY: NCI-60 one-dose screen, 48 h
MEASUREMENT_CONTEXT: 10 µM unless noted
This is part of a sample that, as a whole, favours compounds with a hit. Of some 83,000 tested, about 20% had one in any assay. Active and inactive are the calls of the source. Rule for the calls: active = growth percent below 10; inactive = the rest.
Log the outcome using a class from 1 for active, -1 for inactive

Task: Test call, this compound: `Clc1ccc2c(c1)C[C@H]1C[C@@H](c3cccs3)N2O1`
Output: -1

Task: Test call, this compound: `Oc1ccc(Cl)cc1CNc1nc2ccccc2[nH]1`
Output: -1

Task: Test call, this compound: `Oc1cccc(Nc2nc(-c3ccccn3)cs2)c1`
Output: -1

Task: Test call, this compound: `COc1ccc(OC)c(/C=C2\Oc3cc(O)ccc3C2=O)c1`
Output: -1

Task: Test call, this compound: CC(C)NCC(O)COc1ccc(CCOCC2CC2)cc1 (stereo not drawn)
Output: -1

Task: Test call, this compound: `O=[N+]([O-])c1ccc2nc(N/N=C/c3ccc(O)cc3)sc2c1`
Output: -1

Task: Test call, this compound: `CCCCC/C=C\C/C=C/CCCCCCCCNC(=O)Nc1ccc([N+](=O)[O-])cc1`
Output: -1

Task: Test call, this compound: `COC(=O)[C@@]12CC[C@@H](C)[C@]3(C[C@@H](c4ccoc4)OC3=O)[C@H]1CC[C@@H]1O[C@@]12C`
Output: -1

Task: Test call, this compound: `NS(=O)(=O)c1ccc(C(=O)N/N=C(\CS(=O)(=O)c2ccccc2)c2cc3cc(Br)ccc3o2)cc1`
Output: -1

Task: Test call, this compound: `O=C(N/N=C(\CS(=O)(=O)c1ccccc1)c1cc2cc(Br)ccc2oc1=O)c1ccccc1`
Output: -1

Task: Test call, this compound: `Cc1cc(C)c(S(=O)O)c(C)c1`
Output: -1

Task: Test call, this compound: `c1ccc(-c2n(Cc3ccc4ccccc4c3)c3ccccc3[n+]2Cc2ccc3ccccc3c2)cc1`
Output: 1

Task: Test call, this compound: COc1ccc(/C=N/OCC(O)CNCc2ccccc2)cc1OC1CCCC1 (stereo not drawn)
Output: -1

Task: Test call, this compound: `CCN(CC)c1ccc(/C=C(\C#N)c2cc3ccccc3[nH]2)cc1`
Output: -1

Task: Test call, this compound: O=C1NC(=O)C(CSc2ccccc2)(c2ccccc2)N1 (stereo not drawn)
Output: -1

Task: Test call, this compound: `NC(=O)c1cccc(-n2ccc3cc(NC(=O)Nc4ccc(Cl)c(Cl)c4)ccc32)n1`
Output: -1

Task: Test call, this compound: O=C1CC2c3cc(-c4cc5ccccc5o4)ccc3CCN2C(=O)N1c1ccccc1 (stereo not drawn)
Output: -1

Task: Test call, this compound: `C=CC[P+](c1ccccc1)(c1ccccc1)c1ccccc1`
Output: -1

Task: Test call, this compound: `N#C/C(=C\c1ccc[nH]1)c1cc2ccccc2[nH]1`
Output: -1

Task: Test call, this compound: `O=C1c2[nH]cc(CN[C@@H]3CCCN3)c2C(=O)c2c1c(O)c1ccccc1c2O`
Output: 1

Task: Test call, this compound: `FCOC(C(F)(F)F)C(F)(F)F`
Output: -1

Task: Test call, this compound: `O=C(CCc1nnc2sc(/C=C\c3ccccc3)nn12)c1nc2ccccc2[nH]1`
Output: -1

Task: Test call, this compound: `N#Cc1c(-c2cccc(F)c2)cc(-c2ccc(Br)s2)[nH]c1=O`
Output: -1

Task: Test call, this compound: `Cc1ccc2c(N/N=C\c3ccco3)cc(C)nc2n1`
Output: -1

Task: Test call, this compound: `CCN(CC)c1ccc2c(c1)OS(=O)(=O)N=C2`
Output: -1

Task: Test call, this compound: `Cc1ccccc1-n1nnc(C(=O)Nc2ccc(-c3ccccc3)cn2)c1C`
Output: 1

Task: Test call, this compound: `FC(F)(F)c1cc(CNc2nc(Cl)ncc2Br)cc(C(F)(F)F)c1`
Output: -1

Task: Test call, this compound: `O=C1/C(=C/c2ccc(F)cc2)CN(Cc2cn(CCNc3ccnc4cc(Cl)ccc34)nn2)C/C1=C\c1ccc(F)cc1`
Output: 1

Task: Test call, this compound: `Cc1nc2cc(Nc3nc(Nc4ccc(F)cc4)nc(N4CCCC4)n3)ccc2n1Cc1ccccc1`
Output: 1

Task: Test call, this compound: `O=c1onc(-c2ccccc2)c2ccccc12`
Output: -1

Task: Test call, this compound: `O=C1/C(=C/c2ccc(Oc3ccccc3)cc2)N=C(c2ccccc2)N1CCc1cccs1`
Output: -1

Task: Test call, this compound: COC(=O)/C=C1/CCC2C3CCC4=CC(=O)C(Br)CC4(C)C3C(=O)CC12C (stereo not drawn)
Output: -1

Task: Test call, this compound: `COc1ccc(Nc2nc(NCCNc3ccnc4cc(Cl)ccc34)nc(N3CCOCC3)n2)cc1`
Output: -1

Task: Test call, this compound: `COc1ccccc1/C=C/C(=O)/C=C/c1ccccc1O`
Output: -1

Task: Test call, this compound: `Cc1nc2cc(Nc3nc(Nc4ccc(F)cc4)nc(-c4ccc(Cl)cc4)n3)ccc2n1Cc1ccccc1`
Output: -1

Task: Test call, this compound: `C=C1CC[C@@H]2[C@@](C)(CCC[C@]2(C)C(=O)O)[C@@H]1CC[C@H](CO)CCO`
Output: -1

Task: Test call, this compound: COc1cccc(C2C3=C(COC3=O)N(CCO)c3cc4c(cc32)CCC4)c1 (stereo not drawn)
Output: 1

Task: Test call, this compound: `CN1CCN(C)c2cncc(Br)c2C1=O`
Output: -1

Task: Test call, this compound: `Clc1ccc(C2=Nc3cccc4cccc(c34)N2)cc1Cl`
Output: -1

Task: Test call, this compound: `O=c1oc2ccccc2cc1-c1csc(N/N=C/c2cc3ccccc3nc2Cl)n1`
Output: -1

Task: Test call, this compound: O=C(N/N=C/c1ccc(OC(F)F)c(OC2CCCC2)c1)c1cnn2c1NC(c1ccccc1)C2 (stereo not drawn)
Output: -1

Task: Test call, this compound: COC1(OC)C2(Cl)C=C(c3ccccc3)C1(Cl)C(Cl)=C2Cl (stereo not drawn)
Output: -1

Task: Test call, this compound: `COC(=O)c1c2c(c(C)[n+]([O-])c1C)C(=O)C(NCc1ccc(O)cc1)=CC2=O`
Output: 1

Entry source: PubChem BioAssay (NCI)
